biological target: recombinant human H3 receptor (Homo sapiens); test: H3-receptor binding assay, recombinant human receptor expressed in HEK-293 cells; conditions: [3H]R-α-methyl histamine or [3H]Nα-methyl histamine
Sequence (Q9Y5N1 whole entry): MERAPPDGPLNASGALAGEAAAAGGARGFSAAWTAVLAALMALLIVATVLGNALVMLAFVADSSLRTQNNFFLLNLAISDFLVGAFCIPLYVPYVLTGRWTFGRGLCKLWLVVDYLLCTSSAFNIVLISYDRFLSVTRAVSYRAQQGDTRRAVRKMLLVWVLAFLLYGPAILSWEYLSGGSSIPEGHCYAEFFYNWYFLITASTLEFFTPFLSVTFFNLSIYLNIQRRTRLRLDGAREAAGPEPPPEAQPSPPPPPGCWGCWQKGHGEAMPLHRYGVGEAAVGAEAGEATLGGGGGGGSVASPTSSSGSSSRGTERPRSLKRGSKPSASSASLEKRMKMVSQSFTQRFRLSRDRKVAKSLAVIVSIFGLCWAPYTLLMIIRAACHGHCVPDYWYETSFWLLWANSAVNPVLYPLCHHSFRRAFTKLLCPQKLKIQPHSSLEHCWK
Measurement kind: Ki (nM)
Return type: number; implicit unit nM.

Endpoint output: Ki of O=C(c1ccc(Nc2ccncc2)cc1)N1CCC(n2c(-c3ccccn3)nc3cccnc32)CC1 [Compound 59A] . Value?
3
